Data credit: ChEMBL document CHEMBL1138586

- Protocol text: Oral bioavailability in Sprague-Dawley rat at 6 mg/kg
- Type: ADME, organism-based
- Condition: in vivo
Observable: bioavailability (%)
// note: answer is a bare numeric in %

Challenge: Quick one: bioavailability of CN(C)C(=N)c1ccc(C(=O)Nc2ccccc2C(=O)Nc2ccc(Cl)cn2)cc1 ?
Response given: 31

###

Listed below: pIC50 values for each entry.
- Protocol text: Inhibition of trypsin
pIC50: −log10 of the molar value.

Some solved cases for reference:
* CN(C)C(=N)c1ccc(C(=O)Nc2ccc(Cl)cc2C(=O)Nc2ccc(Cl)cn2)cc1 | < 5.00
* CN(C)C(=N)c1ccc(C(=O)Nc2ccc(Cl)cc2C(=O)Nc2ccc(Cl)cn2)c(F)c1 | < 5.00

Next compound, pIC50 to be filled in.
Challenge: # pIC50 lookup, item COc1ccc(NC(=O)c2ccc(C(=N)N(C)C)cc2)c(C(=O)Nc2ccc(Cl)cn2)c1 [BETRIXABAN]
Response given: < 5.00

###

- Assay target: UniProtKB P00742
- Sequence (P00742 41-179 limits assumed): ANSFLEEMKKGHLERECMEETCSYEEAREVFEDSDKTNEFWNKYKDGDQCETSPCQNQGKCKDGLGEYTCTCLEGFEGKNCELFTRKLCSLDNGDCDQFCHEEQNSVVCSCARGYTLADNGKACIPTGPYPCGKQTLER
- Sequence (P00742 235-488 limits assumed): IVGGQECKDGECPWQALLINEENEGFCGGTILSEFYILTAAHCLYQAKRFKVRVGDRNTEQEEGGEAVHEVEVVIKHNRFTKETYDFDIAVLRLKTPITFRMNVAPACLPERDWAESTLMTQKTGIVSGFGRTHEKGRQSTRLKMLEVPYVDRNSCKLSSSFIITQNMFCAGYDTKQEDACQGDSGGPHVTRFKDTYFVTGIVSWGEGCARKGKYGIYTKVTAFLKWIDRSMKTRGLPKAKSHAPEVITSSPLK
Observable: Ki
Answer as a quantity: numeral, then unit.

Challenge: Tell me reported Ki for COc1ccc(NC(=O)c2ccc(C(=N)N(C)C)cc2F)c(C(=O)Nc2ccc(Cl)cn2)c1 , tested with UniProtKB P00742.
Response given: 0.105 nM

###

- Protocol text: Oral bioavailability in rat
- Type: ADME, organism-based
- Condition: in vivo
Recorded bioavailability values for a group of molecules are listed next.
Return type: number; implicit unit %.

// solved cases for bioavailability follow
* COCCN(C)c1cc(Cl)cc(C(=O)Nc2ccc(Cl)cn2)c1NC(=O)c1ccc(C(=N)N(C)C)cc1 | 8.1
* CSc1ccc(NC(=O)c2ccc(C(=N)N(C)C)cc2)c(C(=O)Nc2ccc(Cl)cn2)c1 | 26.7

Challenge: Requested read-out: bioavailability. Entry: COc1cc(Cl)cc(C(=O)Nc2ccc(Cl)cn2)c1NC(=O)c1ccc(C(=N)N(C)C)cc1
Response given: 11.2

Challenge: Item C#Cc1ccc(NC(=O)c2ccc(C(=N)N(C)C)cc2)c(C(=O)Nc2ccc(Cl)cn2)c1 has what recorded bioavailability?
Response given: 27.9

Challenge: Quick check: bioavailability of CN(C)C(=N)c1ccc(C(=O)Nc2ccc(Cl)cc2C(=O)Nc2ccc(Cl)cn2)c(N2CCCCC2)c1 ?
Response given: 21.3

Challenge: Fill in the blank: the reported bioavailability of CN(C)C(=N)c1ccc(C(=O)Nc2ccc(Cl)cc2C(=O)Nc2ccc(Cl)cn2)c(N2CCCC2)c1 is ____.
Response given: 6.9

Challenge: Given the molecule CN(C)C(=N)c1ccc(C(=O)Nc2ccc(Cl)cc2C(=O)Nc2ccc(Cl)cn2)c(F)c1 , what is its reported bioavailability?
Response given: 38

###

Catalogue of compounds with associated clearance
- Protocol text: Clearance in rat at 0.2 mg/kg, iv and 6 mg/kg, po
- Type: ADME, organism-based
- Condition: in vivo
Kindly provide the numeric value in mL/min/kg only, without the unit symbol.

* CN(C)C(=N)c1ccc(C(=O)Nc2ccc(Cl)cc2C(=O)Nc2ccc(Cl)cn2)cc1 | 29.7

Shift focus to the following entry.
Challenge: What value of clearance has been recorded for this entry: CN(C)C(=N)c1ccc(C(=O)Nc2ccc(Cl)cc2C(=O)Nc2ccc(Cl)cn2)c(F)c1
Response given: 15.3

###

- Protocol text: Volume of distribution in rat at 0.2 mg/kg, iv and 6 mg/kg, po
- Assay type: ADME, organism-based
- Condition: in vivo
Recorded Vd by entry
Record the result as a number with its unit.

- CN(C)C(=N)c1ccc(C(=O)Nc2ccc(Cl)cc2C(=O)Nc2ccc(Cl)cn2)cc1: 26.1 L/kg

Challenge: Item CN(C)C(=N)c1ccc(C(=O)Nc2ccc(Cl)cc2C(=O)Nc2ccc(Cl)cn2)c(F)c1 has what recorded Vd?
Response given: 6.9 L/kg
